Tested on: naturally aged mice
Experimental protocol: Anti-aging evaluation in naturally aged mice, Example 31, Table 55
Assay type: in vivo, mouse
Experimental conditions: untreated 0.82 g
Catalogue of Fat Mass values
Write the number in g without appending the unit.

Answered cases to consult:
>  <Compound>
C[C@@H]1CC[C@@]23C[C@H](O)C(=O)[C@@]2(O)[C@]1(C)[C@H](OC(=O)CCl)C[C@@H](C1=CCn2c(=O)n(-c4ccccc4)c(=O)n2C1)[C@@H]3C

>  <Recorded measurement>
1.16

$$$$
>  <Compound>
CC12CCN(CC1)C(CNC(=O)C(F)(F)F)C2=O (stereo not shown)

>  <Recorded measurement>
0.85

$$$$
>  <Compound>
C[N+](C)(C)CCO.C[N+](C)(C)CCO.[SH-].[SH-].[S]=[Mo]=[S]

>  <Recorded measurement>
0.88

$$$$

Moving on to the next compound.
Any idea what its Fat Mass is? The compound is O=C(C(C[N+](=O)[O-])=NO)N1CCN(C(c2ccc(Cl)cc2)c2ccc(Cl)cc2)CC1
0.98

----------
System: HMGN1 secreted from senescent A549 cells
Experimental protocol: HMGN1 secretion (ELISA) from senescent A549 cancer cells, Example 12
Type: cell-based, human
Experimental conditions: senescent untreated = 100%; 30 μM; 90 μM for LX-305, 905, 1302, 1601, 1603, 2003, 2702, 2901, 3106; 270 μM for LX-1103, 2005, 2007
Catalogue of HMGN1 values
Write the number in % without appending the unit.

>  <Compound>
O=C(NCc1ccncc1)C12CC3CC(C1)CC(c1ccc(Cl)cc1)(C3)C2 [LX-3106, Opaganib]

>  <Recorded measurement>
236

$$$$
>  <Compound>
CC/C=C\C/C=C\C/C=C\C/C=C\C/C=C\C/C=C\CCC(=O)O [LX-2702, Docosahexaenoic acid]

>  <Recorded measurement>
237

$$$$
>  <Compound>
CC1(C)CC[C@]2(NC(=O)C(C)(F)F)CC[C@]3(C)[C@H](C(=O)C=C4[C@@]5(C)C=C(C#N)C(=O)C(C)(C)[C@@H]5CC[C@]43C)[C@@H]2C1 [LX-2101, Omaveloxolone]

>  <Recorded measurement>
297

$$$$

Moving on to the next compound.
What is its HMGN1 for HMGN1 secreted from senescent A549 cells? Entry: NCC(=O)CCC(=O)O [LX-1103, 5-Aminolevulinic acid]
158

----------
Test system: naturally aged mice
Experimental protocol: Anti-aging evaluation in naturally aged mice, Example 31, Table 55
Type: in vivo, mouse
Experimental conditions: skin, untreated = 1.0
Measurement type: Skin SDF1 mRNA (fold)
Write the number in fold without appending the unit.

Answered cases to consult:
>  <Compound>
Nc1ccc(/C=C/C(=O)NCc2cc3cc(-c4ccc(C(=O)N5CCC(F)(F)CC5)cc4)cc(-c4ccc(F)cc4)c3o2)cn1 [LX-8812, Padnarsertib]

>  <Skin SDF1 mRNA / fold>
2.9

$$$$
>  <Compound>
O=C(O)c1cc(/N=N/c2ccc(S(=O)(=O)Nc3ccccn3)cc2)ccc1O [LX-1302, Sulfasalazine]

>  <Skin SDF1 mRNA / fold>
1.8

$$$$
>  <Compound>
C[N+](C)(C)CCO.C[N+](C)(C)CCO.[SH-].[SH-].[S]=[Mo]=[S] [LX-2601]

>  <Skin SDF1 mRNA / fold>
1.9

$$$$
>  <Compound>
CC/C=C\C/C=C\C/C=C\C/C=C\C/C=C\C/C=C\CCC(=O)O [LX-2702, Docosahexaenoic acid]

>  <Skin SDF1 mRNA / fold>
2.7

$$$$
>  <Compound>
C[C@H](N)C(=O)N1C[C@H](CCCB(O)O)[C@](N)(C(=O)O)C1 [LX-3107, Numidargistat]

>  <Skin SDF1 mRNA / fold>
1.4

$$$$

Moving on to the next compound.
Any idea what its Skin SDF1 mRNA is? The compound is NC(=O)c1ncn([C@@H]2O[C@H](CO)[C@@H](O)[C@H]2O)n1 [LX-6537, Ribavirin]
1.4

----------
Catalogue of Joint Col2a1 mRNA values
Test system: naturally aged mice
Experimental protocol: Anti-aging evaluation in naturally aged mice, Example 31, Table 55
Assay type: in vivo, mouse
Experimental conditions: joint, untreated = 1.0
Write the number in fold without appending the unit.

Answered cases to consult:
>  <Molecule>
CN(Cc1cnc2nc(N)nc(N)c2n1)c1ccc(C(=O)N[C@@H](CCC(=O)O)C(=O)O)cc1 [LX-2901, Methotrexate]

>  <Unit name>
fold

>  <Joint Col2a1 mRNA>
4.0

$$$$
>  <Molecule>
CN(C)c1cccc(-c2c3c(=O)n(-c4ccccc4Cl)[nH]c3cc(=O)n2C)c1

>  <Unit name>
fold

>  <Joint Col2a1 mRNA>
2.4

$$$$
>  <Molecule>
CN[C@H](CC(C)C)C(=O)N[C@H]1C(=O)N[C@@H](CC(N)=O)C(=O)N[C@H]2C(=O)N[C@H]3C(=O)N[C@H](C(=O)N[C@H](C(=O)O)c4cc(O)cc(O)c4-c4cc3ccc4O)[C@H](O)c3ccc(c(Cl)c3)Oc3cc2cc(c3O[C@@H]2O[C@H](CO)[C@@H](O)[C@H](O)[C@H]2O[C@H]2C[C@](C)(N)[C@H](O)[C@H](C)O2)Oc2ccc(cc2Cl)[C@H]1O

>  <Unit name>
fold

>  <Joint Col2a1 mRNA>
1.5

$$$$
>  <Molecule>
C[N+](C)(C)CCO.C[N+](C)(C)CCO.[SH-].[SH-].[S]=[Mo]=[S]

>  <Unit name>
fold

>  <Joint Col2a1 mRNA>
2.3

$$$$
>  <Molecule>
[2H]C([2H])([2H])OCC1(CO)C(=O)C2CCN1CC2 (centres unmarked)

>  <Unit name>
fold

>  <Joint Col2a1 mRNA>
2.0

$$$$
>  <Molecule>
C=C1CC[C@@H]2[C@](C)(CO)[C@H](O)CC[C@@]2(C)[C@@H]1C/C=C1/C(=O)OC[C@H]1O [LX-6800, Andrographolide]

>  <Unit name>
fold

>  <Joint Col2a1 mRNA>
2.4

$$$$
>  <Molecule>
CC1(C)[C@H]2COc3ccc4ccccc4c3[C@H]2N=C2SC(c3ccccc3)=C(c3ccccc3)N21

>  <Unit name>
fold

>  <Joint Col2a1 mRNA>
1.9

$$$$
>  <Molecule>
CC/C=C\C/C=C\C/C=C\C/C=C\C/C=C\C/C=C\CCC(=O)O

>  <Unit name>
fold

>  <Joint Col2a1 mRNA>
2.8

$$$$

Any idea what its Joint Col2a1 mRNA is? The molecule is NCC(=O)CCC(=O)O
2.8

----------
Tested on: naturally aged mice
Experimental protocol: Anti-aging evaluation in naturally aged mice, Example 31, Table 55;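 also: Vehicle-dosed control mice received solution alone at matching volume, values compare test-compound-treated aged mice against that control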
Format: in vivo, mouse
Experimental conditions: liver, untreated = 100%
Measurement type: Liver p16 mRNA (%)
Write the number in % without appending the unit.

Answered cases to consult:
>  <Molecule>
CO[C@]1(C(=O)N[C@@H](C)c2ccc(-n3cc(F)cn3)nc2)CC[C@H](c2nc(C)cc(Nc3cc(C)[nH]n3)n2)CC1

>  <Liver p16 mRNA [%]>
72

$$$$
>  <Molecule>
CCOC(=O)[C@@H](N)CCC(=O)N[C@@H](CSCc1ccccc1)C(=O)N[C@@H](C(=O)OCC)c1ccccc1

>  <Liver p16 mRNA [%]>
71

$$$$
>  <Molecule>
Cc1[nH]nc(C(F)(F)F)c1Cc1sc2c(c1C(=O)N1C[C@](C)(O)CO1)c(=O)n(C)c(=O)n2C(C)C

>  <Liver p16 mRNA [%]>
66

$$$$
>  <Molecule>
Nc1ccc(O)c(C(=O)O)c1

>  <Liver p16 mRNA [%]>
74

$$$$
>  <Molecule>
C[N+](C)(C)CCO.C[N+](C)(C)CCO.[SH-].[SH-].[S]=[Mo]=[S]

>  <Liver p16 mRNA [%]>
73

$$$$

Any idea what its Liver p16 mRNA is? The molecule is C[C@@H](Nc1nc(N[C@H](C)C(F)(F)F)nc(-c2cccc(Cl)n2)n1)C(F)(F)F
61

Now consider NCC(=O)CCC(=O)O and answer again.
47

Now consider O=C(O)c1cc(/N=N/c2ccc(S(=O)(=O)Nc3ccccn3)cc2)ccc1O and answer again.
55

----------
System: HMGN1 secreted from senescent A549 cells
Experimental protocol: HMGN1 secretion (ELISA) from senescent A549 cancer cells, Example 12;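 also: A549 cells made senescent by doxorubicin exposure, with DMSO-treated cells serving as the non-senescent control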
Assay type: cell-based, human
Experimental conditions: senescent untreated = 100%; 30 μM; 90 μM for LX-305, 905, 1302, 1601, 1603, 2003, 2702, 2901, 3106; 270 μM for LX-1103, 2005, 2007
Measurement type: HMGN1 (%)
Write the number in % without appending the unit.

Answered cases to consult:
>  <Smiles str>
C[C@H](N)C(=O)N1C[C@H](CCCB(O)O)[C@](N)(C(=O)O)C1

>  <Unit name>
%

>  <HMGN1>
267

$$$$
>  <Smiles str>
O=C(C(C[N+](=O)[O-])=NO)N1CCN(C(c2ccc(Cl)cc2)c2ccc(Cl)cc2)CC1

>  <Unit name>
%

>  <HMGN1>
320

$$$$

Moving on to the next compound.
Any idea what its HMGN1 is? The compound is C[C@H]1[C@H](C)CC[C@]2(C(=O)O)CC[C@]3(C)C(=CC[C@@H]4[C@@]5(C)CC[C@H](O)C(C)(C)[C@@H]5CC[C@]43C)[C@H]12
328
